Molecular target: human FLT3 protein (FLT3 (WT)) (Homo sapiens)
Construct: human FLT3 protein (intracellular region, 564 to 993 aa); GST; purchased Carna Biosciences; host or cells: baculovirus expression system
Sequence (P36888 564-993): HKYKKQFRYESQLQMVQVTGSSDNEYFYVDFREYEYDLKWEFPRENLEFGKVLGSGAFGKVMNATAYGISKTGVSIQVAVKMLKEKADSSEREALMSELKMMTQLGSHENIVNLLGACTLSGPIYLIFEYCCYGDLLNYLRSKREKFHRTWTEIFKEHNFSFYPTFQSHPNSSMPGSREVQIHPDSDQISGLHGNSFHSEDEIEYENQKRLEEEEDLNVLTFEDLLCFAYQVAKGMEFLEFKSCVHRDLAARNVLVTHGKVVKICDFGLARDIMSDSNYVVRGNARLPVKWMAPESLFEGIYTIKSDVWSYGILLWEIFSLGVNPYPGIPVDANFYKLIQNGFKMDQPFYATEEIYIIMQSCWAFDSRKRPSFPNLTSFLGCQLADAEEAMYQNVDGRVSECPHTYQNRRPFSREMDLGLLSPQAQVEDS
Experiment: FLT3 inhibition test (FLT3 enzyme inhibition, time-resolved fluorescence of substrate peptide phosphorylation)
Format: biochemical
Conditions: GST-fused human FLT3 (564 to 993 aa), ATP 50 μM; read-out: FLT3 (WT) enzyme inhibition activity
pIC50: −log10 of the molar value.
quantityName: pIC50

>>> resultvalue("C[C@@H](C(=O)N[C@H]1C[C@@H](C#Cc2cnc(Nc3cccc(C#N)c3)nc2NC2CC2)C1)N(C)C(=O)/C=C/CN(C)C")
"> 8.00"
>>> resultvalue("CNc1nc(Nc2cccc(F)c2)ncc1C#CCCCNC(=O)[C@@H]1C[C@H](F)CN1C(=O)/C=C/CN(C)C")
"> 8.00"
>>> resultvalue("CCCNc1nc(Nc2ccc(C(=O)N(C)C)cc2)ncc1C#CCCCNC(=O)CN(C)C(=O)/C=C/CN(C)C")
"7.00 to 8.00"
>>> resultvalue("C[C@@H](C(=O)NCCCC#Cc1cnc(Nc2ccc(F)nc2)nc1NCCCF)N(C)C(=O)/C=C/CN(C)C")
"> 8.00"
